# Test system: 299254-011-R-J1-PDC complex spheroid viability
# Run Description: Anticancer human tumor 299254-011-R-J1-PDC patient-derived melanoma cell line growth inhibition [POLQ]
# Assay Setup: second compound 0.316 µM; first compound 3.16 µM; stronger effect = lower value
Metric: viability, T/C (%)
Give bare numbers, in %.

The examples below pair each entry with its known result.
- Molecule: "CCCS(=O)(=O)Nc1ccc(F)c(C(=O)c2c[nH]c3ncc(-c4ccc(Cl)cc4)cc23)c1F + COC1C(OC(N)=O)C(O)C(Oc2ccc3c(O)c(NC(=O)c4ccc(O)c(CC=C(C)C)c4)c(=O)oc3c2C)OC1(C)C"
  viability, T/C [%]: 121
- Molecule: "O=C(Nc1ccc(O)c(NS(=O)(=O)c2ccc(F)cc2)c1)c1ccc(-c2ccccc2)cc1 + COC1C(OC(N)=O)C(O)C(Oc2ccc3c(O)c(NC(=O)c4ccc(O)c(CC=C(C)C)c4)c(=O)oc3c2C)OC1(C)C"
  viability, T/C [%]: 97.7
- Molecule: "COc1cc(C2c3cc4c(cc3C(OC3OC5COC(C)OC5C(O)C3O)C3COC(=O)C23)OCO4)cc(OC)c1O (stereo not given) + Cc1cccc(N(C)C(=O)C2C(O)CCN2c2nc(C)cc(C(F)(F)F)c2C#N)c1"
  viability, T/C [%]: 70
- Molecule: "COc1cc(C2c3cc4c(cc3C(OC3OC5COC(C)OC5C(O)C3O)C3COC(=O)C23)OCO4)cc(OC)c1O (stereo not given) + COC1C(OC(N)=O)C(O)C(Oc2ccc3c(O)c(NC(=O)c4ccc(O)c(CC=C(C)C)c4)c(=O)oc3c2C)OC1(C)C"
  viability, T/C [%]: 75.2
- Molecule: "COc1cc2cc(C(=O)CCC(=O)O)sc2cc1OC + Nc1ccc(C#CCN(C(=O)Cc2ncc(C(F)(F)F)cc2C(F)(F)F)c2ccc(F)cc2)nn1"
  viability, T/C [%]: 97.5
- Molecule: "O=C(c1cc(Cc2n[nH]c(=O)c3ccccc23)ccc1F)N1CCN(C(=O)C2CC2)CC1 + Cc1cccc(N(C)C(=O)C2C(O)CCN2c2nc(C)cc(C(F)(F)F)c2C#N)c1"
  viability, T/C [%]: 106

For each of the molecules below, state viability, T/C.
1. Nc1ccn(C2OC(CO)C(O)C2(F)F)c(=O)n1 (stereo not given) + Nc1ccc(C#CCN(C(=O)Cc2ncc(C(F)(F)F)cc2C(F)(F)F)c2ccc(F)cc2)nn1
2. O=c1[nH]cc(F)c(=O)[nH]1 + Cc1cccc(N(C)C(=O)C2C(O)CCN2c2nc(C)cc(C(F)(F)F)c2C#N)c1

43.7
98.9

Below are 2 molecules. Give each one its viability, T/C.
1. COc1cccc2c1C(=O)c1c(O)c3c(c(O)c1C2=O)CC(O)(C(=O)CO)CC3OC1CC(N)C(O)C(C)O1 (stereo not given) + COC1C(OC(N)=O)C(O)C(Oc2ccc3c(O)c(NC(=O)c4ccc(O)c(CC=C(C)C)c4)c(=O)oc3c2C)OC1(C)C
2. C#Cc1c(F)ccc2cc(O)cc(-c3ncc4c(N5CC6CCC(C5)N6)nc(OCC56CCCN5CC(F)C6)nc4c3F)c12 (stereo not given) + COC1C(OC(N)=O)C(O)C(Oc2ccc3c(O)c(NC(=O)c4ccc(O)c(CC=C(C)C)c4)c(=O)oc3c2C)OC1(C)C

1: 13.1; 2: 105

====

# Tested on: 299254-011-R-J1-PDC complex spheroid viability
# Run Description: Anticancer human tumor 299254-011-R-J1-PDC cell line growth inhibition [POLQ];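 further: spheroids exposed to drugs for one week before measurement; percent viability relative to DMSO vehicle control taken as 100%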
# Assay Setup: second compound 1 µM; first compound 0.00316 µM; stronger effect = lower value
Metric: viability, T/C (%)
Give bare numbers, in %.

Sample answers from the record:
- Molecule: "C=CCn1c(=O)c2cnc(Nc3ccc(N4CCN(C)CC4)cc3)nc2n1-c1cccc(C(C)(C)O)n1 + Cc1cccc(N(C)C(=O)C2C(O)CCN2c2nc(C)cc(C(F)(F)F)c2C#N)c1"
  Measurement Target: "299254-011-R-J1-PDC complex spheroid viability"
  viability, T/C / %: 117
- Molecule: "CCc1c2c(nc3ccc(O)cc13)-c1cc3c(c(=O)n1C2)COC(=O)[C@]3(O)CC + Nc1ccc(C#CCN(C(=O)Cc2ncc(C(F)(F)F)cc2C(F)(F)F)c2ccc(F)cc2)nn1"
  Measurement Target: "299254-011-R-J1-PDC complex spheroid viability"
  viability, T/C / %: 111
- Molecule: "CC[C@@]1(O)C(=O)OCc2c1cc1n(c2=O)Cc2cc3c(CN(C)C)c(O)ccc3nc2-1 + Nc1ccc(C#CCN(C(=O)Cc2ncc(C(F)(F)F)cc2C(F)(F)F)c2ccc(F)cc2)nn1"
  Measurement Target: "299254-011-R-J1-PDC complex spheroid viability"
  viability, T/C / %: 107
- Molecule: "CCc1c2c(nc3ccc(O)cc13)-c1cc3c(c(=O)n1C2)COC(=O)[C@]3(O)CC + Cc1cccc(N(C)C(=O)C2C(O)CCN2c2nc(C)cc(C(F)(F)F)c2C#N)c1"
  Measurement Target: "299254-011-R-J1-PDC complex spheroid viability"
  viability, T/C / %: 111

Query the reported viability, T/C for 299254-011-R-J1-PDC complex spheroid viability; item: CC[C@@]1(O)C(=O)OCc2c1cc1n(c2=O)Cc2cc3c(CN(C)C)c(O)ccc3nc2-1 + Cc1cccc(N(C)C(=O)C2C(O)CCN2c2nc(C)cc(C(F)(F)F)c2C#N)c1
100

====

Kindly state viability, T/C for each of the entries shown.
# Tested on: 299254-011-R-J1-PDC complex spheroid viability
# Run Description: Anticancer human tumor 299254-011-R-J1-PDC cell line growth inhibition [POLQ];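 further: spheroids exposed to drugs for one week before measurement; percent viability relative to DMSO vehicle control taken as 100%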
# Assay Setup: second compound 0.0316 µM; first compound 0.316 µM; stronger effect = lower value
Give bare numbers, in %.

Reference set (8 entries):
- Molecule: "CCCS(=O)(=O)Nc1ccc(F)c(C(=O)c2c[nH]c3ncc(-c4ccc(Cl)cc4)cc23)c1F + Nc1ccc(C#CCN(C(=O)Cc2ncc(C(F)(F)F)cc2C(F)(F)F)c2ccc(F)cc2)nn1"
  viability, T/C, %: 122
- Molecule: "CC1COCCN1c1cc(C2(O)CC3CCC(C2)O3)c2cnn(-c3ccn[nH]3)c2n1 (stereo unspecified) + Cc1cccc(N(C)C(=O)C2C(O)CCN2c2nc(C)cc(C(F)(F)F)c2C#N)c1"
  viability, T/C, %: 35.2
- Molecule: "COc1cc2cc(C(=O)CCC(=O)O)sc2cc1OC + COC1C(OC(N)=O)C(O)C(Oc2ccc3c(O)c(NC(=O)c4ccc(O)c(CC=C(C)C)c4)c(=O)oc3c2C)OC1(C)C"
  viability, T/C, %: 106
- Molecule: "C=CCn1c(=O)c2cnc(Nc3ccc(N4CCN(C)CC4)cc3)nc2n1-c1cccc(C(C)(C)O)n1 + Nc1ccc(C#CCN(C(=O)Cc2ncc(C(F)(F)F)cc2C(F)(F)F)c2ccc(F)cc2)nn1"
  viability, T/C, %: 95.8
- Molecule: "COc1ccc([C@@H](O)c2cc(-c3ncnc4cc(N5CCOCC5)ccc34)c(F)cc2Cl)nn1 + Nc1ccc(C#CCN(C(=O)Cc2ncc(C(F)(F)F)cc2C(F)(F)F)c2ccc(F)cc2)nn1"
  viability, T/C, %: 98
- Molecule: "O=c1[nH]cc(F)c(=O)[nH]1 + Cc1cccc(N(C)C(=O)C2C(O)CCN2c2nc(C)cc(C(F)(F)F)c2C#N)c1"
  viability, T/C, %: 105
- Molecule: "CNCc1ccc(-c2[nH]c3cc(F)cc4c3c2CCNC4=O)cc1 + COC1C(OC(N)=O)C(O)C(Oc2ccc3c(O)c(NC(=O)c4ccc(O)c(CC=C(C)C)c4)c(=O)oc3c2C)OC1(C)C"
  viability, T/C, %: 102
- Molecule: "CCCS(=O)(=O)Nc1ccc(F)c(C(=O)c2c[nH]c3ncc(-c4ccc(Cl)cc4)cc23)c1F + Cc1cccc(N(C)C(=O)C2C(O)CCN2c2nc(C)cc(C(F)(F)F)c2C#N)c1"
  viability, T/C, %: 119

Give viability, T/C for each listed item.
1. COc1cccc(OCCCN)c1-c1cc(Nc2cnc(C#N)cn2)n[nH]1 + Nc1ccc(C#CCN(C(=O)Cc2ncc(C(F)(F)F)cc2C(F)(F)F)c2ccc(F)cc2)nn1
2. C#Cc1c(F)ccc2cc(O)cc(-c3ncc4c(N5CC6CCC(C5)N6)nc(OCC56CCCN5CC(F)C6)nc4c3F)c12 (stereo unspecified) + Nc1ccc(C#CCN(C(=O)Cc2ncc(C(F)(F)F)cc2C(F)(F)F)c2ccc(F)cc2)nn1
3. O=C(Nc1ccc(O)c(NS(=O)(=O)c2ccc(F)cc2)c1)c1ccc(-c2ccccc2)cc1 + Nc1ccc(C#CCN(C(=O)Cc2ncc(C(F)(F)F)cc2C(F)(F)F)c2ccc(F)cc2)nn1

1. 40.2
2. 106
3. 97.4
